Protocol summary: inhibitors of polyQ protein aggregation (AID 1604)
Experimental parameters: polyglutamine-induced protein aggregation inhibition assay; stronger effect = higher value; concentration not given here
Label Y when inhibition of aggregation is at or above 60%; anything below gets N.

| Compound | Assigned label |
| --- | --- |
| CN1C(=O)CCS(=O)(=O)C1c1ccc(Cl)cc1 (stereo unspecified) | Y |
| CC[C@H]1C(=O)OC[C@@H]1Cc1cccn1C | N |
| CC(C)N(CCC(C(N)=O)(c1ccccc1)c1ccccn1)C(C)C (stereo unspecified) | Y |
| Clc1ccc(CSC(Cn2ccnc2)c2ccc(Cl)cc2Cl)cc1 (stereo unspecified) | N |

Answer whether inhibition of aggregation of COc1ccc2c3c1O[C@H]1[C@@H](O)C=CC4[C@@H](C2)N(C)CC[C@@]341 (stereo partly specified) is greater than or equal to 60%.
Y

Answer whether inhibition of aggregation of CCC(=O)C(CC(C)N(C)C)(c1ccccc1)c1ccccc1 (stereo unspecified) is greater than or equal to 60%.
N

Answer whether inhibition of aggregation of c1ccc(N=Nc2ccccc2)cc1 is greater than or equal to 60%.
Y

Answer whether inhibition of aggregation of CCC(C)[C@H]1O[C@]2(C=C[C@@H]1C)C[C@@H]1C[C@@H](C/C=C(\C)[C@@H](OC3C[C@H](OC)C(O[C@H]4C[C@H](OC)[C@@H](O)[C@H](C)O4)[C@H](C)O3)[C@@H](C)/C=C/C=C3\CO[C@@H]4[C@H](O)C(C)=C[C@@H](C(=O)O1)[C@]34O)O2 (stereo partly specified) is greater than or equal to 60%.
N

Answer whether inhibition of aggregation of C=C[C@H]1CN2CC[C@H]1C[C@@H]2[C@H](O)c1ccnc2ccccc12 is greater than or equal to 60%.
N

Answer whether inhibition of aggregation of CN1CC[C@]23c4c5ccc(O)c4O[C@H]2[C@H](O)C=CC3[C@H]1C5 (stereo partly specified) is greater than or equal to 60%.
N

Answer whether inhibition of aggregation of C[C@]12CCC3C(CC[C@]4(O)C[C@@H](O)CC[C@]34C=O)[C@@]1(O)CCC2C1=CC(=O)OC1 (stereo partly specified) is greater than or equal to 60%.
Y

---

Protocol summary: differential killing of epithelial or mesenchymal cells, primary screen, imaging, PC-3E GFP, TEM4-18 mCherry, co-culture (AID 1345086);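 further: cells exposed to compound for 72 h before imaging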
Experimental parameters: imaging cell counts, measured here: epithelial PC-3E GFP cell survival, at 1 µM
Measurement type: normalised cell number

Before answering, review these 4 worked examples.
| Compound | Measurement type | Test result |
| --- | --- | --- |
| COc1ccc2c(c1OC)C(=O)O[C@@H]2[C@H]1c2cc3c(cc2CCN1C)OCO3 | normalised cell number | 1.07 |
| N#C/C(=C\c1ccc(O)cc1)C(=O)O | normalised cell number | 1.25 |
| CC(C)=CC1C(C(=O)OCc2cccc(Oc3ccccc3)c2)C1(C)C (stereo not given) | normalised cell number | 1.25 |
| C[C@]12CCC(=O)C=C1CCC1C2CC[C@@]2(C)C1CC[C@H]2O (stereo not given in full) | normalised cell number | 0.92 |

GET /value?item= CC(C)(O)[C@@H]1[C@H]2OC(=O)[C@@H]1[C@]1(O)C[C@H]3O[C@]34C(=O)O[C@H]2[C@]14C &field=normalised cell number returns 1.1
